meta.source: ChEMBL document CHEMBL1201862

Quick list: AC50 per entry.
Test: HIV-1 AD8 envelope cell-cell fusion blockers – cherry-pick, dose response (AID 652062);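 note: luciferase signal from cell-cell fusion driven by HIV-1 clade B AD8 Env; potency is for inhibitors of fusion seen as a drop in luminescence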
Type: functional, cell-based
The source made the active and inactive calls. The rule behind the calls is not given here.
Property label: AC50

1) CCOc1cccc(N(C(=O)Cc2cccs2)C(C(=O)NC2CCCCC2)c2cccn2C)c1 (centres undefined)
42 µM (active)
2) CC[C@@]12C(=O)N(c3cccc(F)c3)C(=O)N1[C@H](c1ccc(Cl)cc1)[C@@H]1C(=O)N(C3CCCCC3)C(=O)[C@@H]12
0.329 µM (active)
3) O=C(c1ccc(Cl)s1)N1CCN(c2nc3ccccc3s2)CC1
11.9 µM (active)
4) Cc1cc(C)c(S(=O)(=O)N2CCN=C2c2ccccc2)cc1C
7.94 µM (active)
